molecular target: DLL4 (human, UniProt Q9NR61); test: ELISA
Sequence (Q9NR61 27-524): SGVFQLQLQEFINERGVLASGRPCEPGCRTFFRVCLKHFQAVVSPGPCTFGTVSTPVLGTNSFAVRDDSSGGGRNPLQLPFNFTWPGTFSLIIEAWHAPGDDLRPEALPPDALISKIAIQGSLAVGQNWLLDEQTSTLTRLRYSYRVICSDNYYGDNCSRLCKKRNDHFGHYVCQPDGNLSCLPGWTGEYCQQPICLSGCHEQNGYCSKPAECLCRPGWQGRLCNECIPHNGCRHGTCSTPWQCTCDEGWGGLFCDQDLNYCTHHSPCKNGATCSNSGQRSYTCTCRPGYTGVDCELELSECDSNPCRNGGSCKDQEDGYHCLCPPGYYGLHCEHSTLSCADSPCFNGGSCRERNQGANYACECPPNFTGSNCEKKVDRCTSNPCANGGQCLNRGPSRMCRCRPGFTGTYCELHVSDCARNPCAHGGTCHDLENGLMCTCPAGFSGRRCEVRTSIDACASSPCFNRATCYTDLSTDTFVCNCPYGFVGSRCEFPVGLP
# pEC50 annotations
Scale: pEC50 equals -log10([C]), with [C] in mol/L.

Below are worked cases with known answers.
*Q* # return recorded pEC50 for input DVD043 DLL4 arm (antibody, DVD-Ig inner) chain 1: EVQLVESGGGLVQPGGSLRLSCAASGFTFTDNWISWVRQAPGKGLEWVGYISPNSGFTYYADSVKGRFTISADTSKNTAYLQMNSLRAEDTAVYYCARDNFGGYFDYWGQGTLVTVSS chain 2: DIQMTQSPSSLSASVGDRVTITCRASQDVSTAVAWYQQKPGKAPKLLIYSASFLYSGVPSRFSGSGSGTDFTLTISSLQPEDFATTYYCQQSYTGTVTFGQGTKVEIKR
*A* 8.67

*Q* # return recorded pEC50 for input DVD257 DLL4 arm (antibody, DVD-Ig outer) chain 1: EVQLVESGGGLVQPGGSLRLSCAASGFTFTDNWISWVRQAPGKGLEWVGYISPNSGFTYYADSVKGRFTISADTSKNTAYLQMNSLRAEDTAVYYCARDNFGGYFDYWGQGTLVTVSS chain 2: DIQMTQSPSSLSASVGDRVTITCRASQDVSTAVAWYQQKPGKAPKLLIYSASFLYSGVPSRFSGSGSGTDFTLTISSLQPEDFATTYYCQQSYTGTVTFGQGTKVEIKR
*A* 9.55

***
*Q* # return recorded pEC50 for input DVD044 DLL4 arm (antibody, DVD-Ig outer) chain 1: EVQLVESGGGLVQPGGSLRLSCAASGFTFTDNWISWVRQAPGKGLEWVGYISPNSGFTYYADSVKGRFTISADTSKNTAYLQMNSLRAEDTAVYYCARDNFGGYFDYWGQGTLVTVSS chain 2: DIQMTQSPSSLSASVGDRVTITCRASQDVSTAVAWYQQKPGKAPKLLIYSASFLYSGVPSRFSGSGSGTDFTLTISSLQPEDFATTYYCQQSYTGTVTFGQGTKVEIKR
*A* 9.28

*Q* # return recorded pEC50 for input DVD258 DLL4 arm (antibody, DVD-Ig inner) chain 1: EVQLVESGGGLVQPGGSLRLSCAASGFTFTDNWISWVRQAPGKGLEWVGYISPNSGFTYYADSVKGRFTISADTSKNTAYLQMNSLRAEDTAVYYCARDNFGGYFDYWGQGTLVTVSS chain 2: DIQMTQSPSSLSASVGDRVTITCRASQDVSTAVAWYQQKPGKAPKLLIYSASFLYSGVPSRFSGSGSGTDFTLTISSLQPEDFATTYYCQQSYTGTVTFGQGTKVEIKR
*A* 8.64

*Q* # return recorded pEC50 for input AB015 (antibody) chain 1: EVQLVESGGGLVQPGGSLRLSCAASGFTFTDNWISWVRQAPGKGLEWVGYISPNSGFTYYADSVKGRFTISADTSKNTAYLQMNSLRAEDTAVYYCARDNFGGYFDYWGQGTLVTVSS chain 2: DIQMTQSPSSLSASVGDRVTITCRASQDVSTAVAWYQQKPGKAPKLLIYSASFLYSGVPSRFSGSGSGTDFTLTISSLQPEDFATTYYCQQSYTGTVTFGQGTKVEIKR
*A* 9.51
